System: MAPKAPK2
protocol-description: Inhibition of MAPKAPK2 in GFP-MAPKAPk2_BHK cell model (nuclear translocation)
Type: cell-based
experimental-context: GFP-MAPKAPk2_BHK cells
observation-type: IC50
A complete answer gives the number followed by the unit.

# annotated cases, reported IC50 shown
compound: CC(C)(C)c1cc(NC(=O)Nc2ccc(Oc3ccc4[nH]ncc4c3)c3c2OCC=C3)n(-c2ccccc2)n1 [26b]
IC50: 22.3 nM
//
compound: CC(C)(C)c1cc(NC(=O)NCc2cc(F)ccc2Oc2ccc3[nH]ncc3c2)n(-c2ccc([N+](=O)[O-])cc2)n1 [25i]
IC50: 3.83 nM
//
compound: CC(C)(C)c1cc(NC(=O)NCc2ccccc2Oc2ccc3[nH]ncc3c2)n(-c2ccc(F)cc2)n1 [25g]
IC50: 3.16 nM
//
compound: COc1ccc(-n2nc(C(C)(C)C)cc2NC(=O)NCc2ccccc2Oc2ccc3[nH]ncc3c2)cc1 [25d]
IC50: 5.45 nM
//
compound: CC(C)(C)c1cc(NC(=O)Nc2ccc(Oc3ccc4[nH]ncc4c3)c3c2OCC=C3)n(-c2ccc(S(N)(=O)=O)cc2)n1 [26c]
IC50: 246 nM

Indicate its recorded IC50; the compound in question is Cc1cccc(-n2nc(C(C)(C)C)cc2NC(=O)NCc2ccccc2Oc2ccc3[nH]ncc3c2)c1 [25c]
6.6 nM

Give the reported value of IC50 for this record: CC(C)(C)c1cc(NC(=O)NCc2ccccc2Oc2ccc3c(c2)CCCC3O)n(-c2ccc([N+](=O)[O-])cc2)n1 (stereo not shown) [27b]
98.5 nM
